# TEST PARAMETERS: in ethanol, 283.15 K
ATTRIBUTE MEASURED: solubility (mole fraction)
One number for each entry.

Requested field: solubility (mole fraction). Item: CC[C@@H](C(=O)[C@@H](C)[C@@H](O)[C@H](C)CCc1ccc(C)c(O)c1C(=O)[O-])[C@H]1O[C@](CC)([C@H]2CC[C@](O)(CC)[C@H](C)O2)C[C@@H]1C.[Na+]
0.00223

----------
# TEST PARAMETERS: in isopropanol, 298.15 K
ATTRIBUTE MEASURED: solubility (mole fraction)
One number for each entry.

Requested field: solubility (mole fraction). Item: CC[C@@H](C(=O)[C@@H](C)[C@@H](O)[C@H](C)CCc1ccc(C)c(O)c1C(=O)[O-])[C@H]1O[C@](CC)([C@H]2CC[C@](O)(CC)[C@H](C)O2)C[C@@H]1C.[Na+]
0.00117
